Test system: OVCAR-3 ovarian
protocol summary: NCI tumour cell line growth inhibition, 48 h
I'd appreciate it if you could supply TGI values for the items below.
Give bare numbers, in µM.

Solved cases below.
>  <compound>
CCOC(=O)C(Cc1ccccc1)n1c(O)c(/C=N/c2ncc(Cc3ccc(Cl)cc3Cl)s2)sc1=S (stereo not given)

>  <experimental target>
OVCAR-3 ovarian

>  <TGI / µM>
9.96

$$$$
>  <compound>
C=C(CC)C(=O)c1ccc(OCC(=O)O)c(Cl)c1Cl

>  <experimental target>
OVCAR-3 ovarian

>  <TGI / µM>
30.1

$$$$
>  <compound>
CCN(CC)CCOc1ccc(/C(=C(\C)Cc2ccc(OC)cc2)c2ccc(O)cc2)cc1

>  <experimental target>
OVCAR-3 ovarian

>  <TGI / µM>
3.21

$$$$

Now for a further compound.
## Input What value of measured TGI is listed for CC(C)(Oc1cccc(N2CCC[C@@H](C(=O)N(Cc3ccc(-c4cn[nH]c4)cc3)C3CC3)C2)c1)C(=O)N1CCNCC1 ?
## Output 26

----------
Test system: NCI-H522 lung
protocol summary: NCI tumour cell line growth inhibition, 48 h
Note to self: values exactly at 20 µM are criterion met. So TGI at or above 20 µM is criterion met, below is criterion not met.

>  <molecule>
CCOP(=O)(OCC)C(Cc1c[nH]c2ccccc12)C(=O)O (stereo unspecified)

>  <class name>
criterion met

$$$$
>  <molecule>
COc1ccc(-c2cc(-c3ccc(Cl)cc3)nc(SCCCC(=O)NO)n2)cc1OC

>  <class name>
criterion not met

$$$$
>  <molecule>
C/C=C(/C)C(=O)OC1C=C(CO)C(=O)C(OC(=O)C2(C)OC2C)C1C(C)C (stereo unspecified)

>  <class name>
criterion not met

$$$$
>  <molecule>
Cc1c(C(=O)/C=C/c2ccc([N+](=O)[O-])cc2)[n+](=O)c2ccccc2n1[O-]

>  <class name>
criterion met

$$$$
>  <molecule>
C=CCc1cc(O)ccc1O

>  <class name>
criterion not met

$$$$

## Input Please tell me: is the molecule Cn1cc(Nc2nccc(-c3ccc4c(c3)CN(C3COC3)CC[C@H]4NC(=O)c3cn(C(C)(C)C)nn3)n2)cn1 at or over 20 µM in terms of TGI?
## Output criterion met

## Input Please tell me: is the molecule COC12OCCN(C)C1=CC(=O)C1N=NCC12 (stereo unspecified) at or over 20 µM in terms of TGI?
## Output criterion met

## Input Please tell me: is the molecule COC1(OC)CCC2(C)OC(c3ccccc3)C1O2 (stereo unspecified) at or over 20 µM in terms of TGI?
## Output criterion met

## Input Please tell me: is the molecule CN1C(=O)[C@@H](CC2CCCC2)N(C2CCCC2)c2nc(Nc3cc(Cl)c(O)c(Cl)c3)ncc21 at or over 20 µM in terms of TGI?
## Output criterion met

## Input Please tell me: is the molecule Cc1ccc(NC(=O)CC(=O)N2N=C(N(c3ccccc3)c3ccccc3)CC2c2ccccc2)cc1 (stereo unspecified) at or over 20 µM in terms of TGI?
## Output criterion met

## Input Please tell me: is the molecule CC1(C)CCC2(C(=O)O)C(O)CC3(C)C(=CCC4C5(C)CCC(OC6OCC(O)C(O)C6OC6OCC(O)C(O)C6OC6OCC(O)C(OC7OC(CO)C(O)C(O)C7O)C6O)C(C)(C)C5CCC43C)C2C1 (stereo unspecified) at or over 20 µM in terms of TGI?
## Output criterion met

## Input Please tell me: is the molecule CC(=O)CCC[C@@H](C)[C@@H]1O[C@H]([C@@]2(C)CCC(=O)O2)CC2[C@H]1OC(=O)C21CC1 (stereo partly specified) at or over 20 µM in terms of TGI?
## Output criterion met

## Input Please tell me: is the molecule Oc1ccc(I)c2cccnc12 at or over 20 µM in terms of TGI?
## Output criterion not met

----------
Tested on: EKVX NSCLC
protocol summary: NCI tumour cell line growth inhibition, 48 h
I'd appreciate it if you could supply TGI values for the items below.

Solved cases below.
>  <molecule>
CN1C(=O)[C@@H](CC2CCCC2)N(C2CCCC2)c2nc(Nc3cc(Cl)c(O)c(Cl)c3)ncc21

>  <result>
> 100 µM

$$$$
>  <molecule>
COc1cc2c(cc1OC)C1CN3CCCC3C(O)C1c1cc(OC)c(OC)cc1-2 (stereo not given)

>  <result>
> 100 µM

$$$$
>  <molecule>
CC(/C=C/c1ccccc1)=N\NC(=S)N/N=C(C)/C=C/c1ccccc1

>  <result>
> 100 µM

$$$$

Required: TGI, one value per molecule below.
1. COC(=O)NC1=Nc2ccccc2C(=O)NN1
2. NC(=S)N/N=C/C(O[C@@H](/C=N/NC(N)=S)CO)n1cnc2c(N)ncnc21 (stereo not given in full)
3. CN(C)C/C=C/C(=O)Nc1ccc(C(=O)Nc2cccc(Nc3ncc(Cl)c(-c4c[nH]c5ccccc45)n3)c2)cc1
4. COC(=O)C1C(=O)C(C(=O)OC)C2CCC1N2C (stereo not given)
5. N#CC(Cl)CS(=O)(=O)c1ccccc1 (stereo not given)

## Output
1. > 100 µM
2. > 100 µM
3. 0.283 µM
4. > 100 µM
5. 38.6 µM

Required: TGI, one value per molecule below.
1. O=C1CC[C@@H](S(=O)(=O)c2ccccc2)[C@H](/C=C/c2ccccc2)O1
2. COc1c(CC(C)=O)c2ccccc2n1C(C)=O

## Output
1. > 100 µM
2. > 100 µM

----------
Test system: A549 NSCLC
protocol summary: NCI tumour cell line growth inhibition, 48 h; in the data active = GI50 below about 0.43 µM; inactive = the rest
Answer with one of the outcomes yes (active), no (inactive)

Past entries and their recorded results:
>  <compound>
N#C/C(=C\c1ccc(O)c(O)c1)C(=O)NCc1cccc(C(F)(F)F)c1

>  <class name>
no

$$$$
>  <compound>
O=C(O)C1CC[N-]CC1.O=C(O)C1CC[N-]CC1.[NH2-].[NH2-].[Pt+4]

>  <class name>
no

$$$$
>  <compound>
CN1C(=O)[C@@H](CC2CCCC2)N(C2CCCC2)c2nc(Nc3cc(Cl)c(O)c(Cl)c3)ncc21

>  <class name>
no

$$$$
>  <compound>
CN1CCN(CCCCCOc2cc(O)c3c(=O)cc(-c4ccccc4)oc3c2)CC1

>  <class name>
no

$$$$
>  <compound>
CCOC(=O)C(Cc1ccccc1)n1c(O)c(/C=N/c2ncc(Cc3ccc(Cl)cc3Cl)s2)sc1=S (configuration not stated)

>  <class name>
no

$$$$

## Input Hey, what did the test say about C=CCc1cc(O)ccc1O ?
## Output no

## Input Hey, what did the test say about CC(C)(Oc1cccc(N2CCC[C@@H](C(=O)N(Cc3ccc(-c4cn[nH]c4)cc3)C3CC3)C2)c1)C(=O)N1CCNCC1 ?
## Output no

## Input Hey, what did the test say about COc1cc(C2C=C(C)N=C3SC=C(C)N32)cc(OC)c1OC (configuration not stated) ?
## Output no

## Input Hey, what did the test say about CCN(CC)CCOc1ccc(/C(=C(\C)Cc2ccc(OC)cc2)c2ccc(O)cc2)cc1 ?
## Output no

## Input Hey, what did the test say about CCN(CC)Cc1cc(Nc2ccnc3ccc(OC)cc23)ccc1O ?
## Output no

## Input Hey, what did the test say about CC(=O)NC(CCc1ccc(Cl)c(Cl)c1)c1cccc(O)c(=O)c1 (configuration not stated) ?
## Output no

## Input Hey, what did the test say about CCNCCS(=O)(=O)NC[C@@]1(c2ccccc2)SC(NC(=O)C(C)(C)C)=NN1C(=O)C(C)(C)C ?
## Output yes

## Input Hey, what did the test say about CC(C)N(CCNc1nc(C(Cl)(Cl)Cl)nc2cc(Cl)ccc12)C(C)C ?
## Output no

## Input Hey, what did the test say about CCN(CC)CCOc1ccc2c(-c3ccccc3)c(-c3ccc(OC)cc3)c(=O)oc2c1 ?
## Output no

## Input Hey, what did the test say about COc1cc(C(=O)/C=C/c2cccnc2Nc2ccc(Cl)cc2)cc(OC)c1OC ?
## Output no

## Input Hey, what did the test say about COc1ccc(/C=C/C(=O)C(=O)/C=C/c2ccc(OC)c(OC)c2)cc1OC ?
## Output no

## Input Hey, what did the test say about c1ccc(C2=Nc3ccccc3N3CNN=C23)cc1 ?
## Output no

----------
Test system: NCI-H460 lung
protocol summary: NCI tumour cell line growth inhibition, 48 h
assay endpoint: TGI (µM)
One number for each entry, in µM.

Solved cases below.
>  <mol>
COc1ccc(-c2cc(-c3ccc(Cl)cc3)nc(SCCCC(=O)NO)n2)cc1OC

>  <experimental target>
NCI-H460 lung

>  <quantity unit>
µM

>  <quantitative readout>
3.4

$$$$
>  <mol>
CC(C)(C)c1cc(Cc2ccc(S(C)(=O)=O)cc2)c(O)c(C(C)(C)C)c1

>  <experimental target>
NCI-H460 lung

>  <quantity unit>
µM

>  <quantitative readout>
30.5

$$$$
>  <mol>
CN1C(=O)[C@@H](CC2CCCC2)N(C2CCCC2)c2nc(Nc3cc(Cl)c(O)c(Cl)c3)ncc21

>  <experimental target>
NCI-H460 lung

>  <quantity unit>
µM

>  <quantitative readout>
90.3

$$$$

## Input Entry Cn1ccc(S(=O)(=O)N2CCC[C@H](Nc3nccc(-c4c(-c5cccc(O)c5)nc5occn45)n3)C2)n1 , system NCI-H460 lung: what TGI was measured?
## Output 59.8
